These data points were gathered from paper PMC8668966.

Molecular target: cytochrome bo3 (Escherichia coli, UniProt P0ABI8)
Construct: made in house; host or cells: E. coli strain GO195 with pIRHisA
Sequence (P0ABJ3 whole entry): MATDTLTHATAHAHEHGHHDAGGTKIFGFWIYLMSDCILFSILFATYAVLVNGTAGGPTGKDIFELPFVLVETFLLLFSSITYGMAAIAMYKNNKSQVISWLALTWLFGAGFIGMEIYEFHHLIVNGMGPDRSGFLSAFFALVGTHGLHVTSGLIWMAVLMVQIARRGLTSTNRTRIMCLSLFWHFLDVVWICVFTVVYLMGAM
Sequence (P0ABJ1 25-315, further chain): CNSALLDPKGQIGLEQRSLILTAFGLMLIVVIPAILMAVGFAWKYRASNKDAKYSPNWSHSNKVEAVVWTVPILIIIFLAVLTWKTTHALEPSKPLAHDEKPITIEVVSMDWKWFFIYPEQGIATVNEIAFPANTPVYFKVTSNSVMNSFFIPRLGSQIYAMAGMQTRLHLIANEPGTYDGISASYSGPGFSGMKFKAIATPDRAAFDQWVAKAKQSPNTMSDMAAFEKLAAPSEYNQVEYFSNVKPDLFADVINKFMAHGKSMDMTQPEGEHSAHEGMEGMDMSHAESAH
Sequence (P0ABJ6 whole entry, further chain): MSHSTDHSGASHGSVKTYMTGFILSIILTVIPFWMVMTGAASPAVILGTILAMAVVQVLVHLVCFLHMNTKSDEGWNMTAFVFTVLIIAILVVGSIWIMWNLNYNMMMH
Sequence (P0ABI8 whole entry): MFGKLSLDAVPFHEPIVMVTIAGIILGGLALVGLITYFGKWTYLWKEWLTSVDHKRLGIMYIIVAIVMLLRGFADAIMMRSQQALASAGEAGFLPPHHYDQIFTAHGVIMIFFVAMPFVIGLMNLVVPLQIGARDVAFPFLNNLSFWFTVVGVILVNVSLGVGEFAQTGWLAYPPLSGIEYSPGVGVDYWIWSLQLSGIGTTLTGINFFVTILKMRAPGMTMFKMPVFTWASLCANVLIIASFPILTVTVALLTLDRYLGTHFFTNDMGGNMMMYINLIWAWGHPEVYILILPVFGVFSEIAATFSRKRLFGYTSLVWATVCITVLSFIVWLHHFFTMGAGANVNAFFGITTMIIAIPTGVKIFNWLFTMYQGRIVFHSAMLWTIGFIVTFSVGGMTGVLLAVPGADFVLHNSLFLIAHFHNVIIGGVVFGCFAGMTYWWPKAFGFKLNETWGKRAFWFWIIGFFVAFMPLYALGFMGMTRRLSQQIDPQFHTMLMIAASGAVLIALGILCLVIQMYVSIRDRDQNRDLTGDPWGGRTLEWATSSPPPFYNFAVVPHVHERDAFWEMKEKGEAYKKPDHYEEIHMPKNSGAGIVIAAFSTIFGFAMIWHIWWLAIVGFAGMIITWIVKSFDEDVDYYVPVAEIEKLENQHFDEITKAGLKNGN
Assay: Oxygen reductase activity assay (Clark-type electrode) with purified cytochrome bo3
Assay type: biochemical, E. coli
Settings: final enzyme concentration 30 nM; EC50 of DoseResp fit; read-out: Ki^app bo3
QUANTITY: pKi
Would you please state pKi, meaning minus log10 of the concentration in mol/L, as a bare number?

stdin: Entry CCCCCCCCCCCc1c(CC)c(=O)c2ccccc2n1O has what pKi?
stdout: 7.51

stdin: Data request, read-out pKi, for CCCCCCCc1cc(O)c2ccccc2[n+]1[O-] [HQNO, 2-heptyl-4-quinolinol 1-oxide, reference compound]
stdout: 5.59

====

Target: cytochrome bd-II (Escherichia coli)
Construct: made in house; host or cells: E. coli C43 (DE3) Δ bo3 (CLY)
Sequence (P26459 whole entry): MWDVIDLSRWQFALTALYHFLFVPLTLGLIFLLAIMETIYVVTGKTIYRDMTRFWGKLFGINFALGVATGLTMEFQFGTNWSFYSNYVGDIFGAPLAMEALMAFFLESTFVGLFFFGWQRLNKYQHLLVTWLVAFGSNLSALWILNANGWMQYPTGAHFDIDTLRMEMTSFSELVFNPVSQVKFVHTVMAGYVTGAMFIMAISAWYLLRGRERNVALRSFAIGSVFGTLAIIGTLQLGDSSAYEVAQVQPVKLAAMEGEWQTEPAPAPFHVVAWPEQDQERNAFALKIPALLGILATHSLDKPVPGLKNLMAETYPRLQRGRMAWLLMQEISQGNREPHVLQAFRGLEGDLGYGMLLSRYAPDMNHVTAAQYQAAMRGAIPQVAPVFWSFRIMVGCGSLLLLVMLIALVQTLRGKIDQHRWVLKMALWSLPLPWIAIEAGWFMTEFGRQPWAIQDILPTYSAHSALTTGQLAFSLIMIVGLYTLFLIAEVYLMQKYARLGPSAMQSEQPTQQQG
Sequence (P24244 whole entry, further chain): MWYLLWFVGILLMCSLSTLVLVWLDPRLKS
Sequence (P26458 whole entry, further chain): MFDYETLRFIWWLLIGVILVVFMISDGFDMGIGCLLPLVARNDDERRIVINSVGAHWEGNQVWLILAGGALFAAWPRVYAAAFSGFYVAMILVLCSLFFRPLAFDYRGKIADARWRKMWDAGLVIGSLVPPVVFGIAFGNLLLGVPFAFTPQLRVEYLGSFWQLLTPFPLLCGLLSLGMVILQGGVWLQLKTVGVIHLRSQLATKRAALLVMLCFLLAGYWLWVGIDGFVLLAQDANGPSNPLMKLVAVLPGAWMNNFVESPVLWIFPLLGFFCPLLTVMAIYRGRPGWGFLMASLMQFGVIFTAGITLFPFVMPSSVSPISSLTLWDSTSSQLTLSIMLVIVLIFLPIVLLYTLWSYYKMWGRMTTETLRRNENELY
Assay: Oxygen reductase activity assay (Clark-type electrode) with purified cytochrome bd-II
Assay type: biochemical, E. coli
Settings: compound 250 µM, 200 µM ubiquinone-1, 5 mM dithiothreitol, 120 nM enzyme, RT, 100% = DMSO; mean ± S.E.M. (n=3); read-out: Rest activity in % of control activity bd-II
Labelling: remaining activity at 250 µM reported below 2% becomes Condition met; at or above becomes Condition not met.

Please review the following examples before continuing.
# MOLECULE, CLASSIFICATION
measured = [
    ("CCCCCCc1c(C)[nH]c2ccccc2c1=O", "Condition met"),
    ("COc1ccc2[nH]c3c(c(=O)c2c1)CCCC3 [Compound 7-MTHA, reference compound]", "Condition not met"),
    ("CCCCCCCCCCCc1cc(=O)c2ccccc2[nH]1", "Condition not met"),
    ("Cc1cc(O)c2ccccc2n1 [Compound 2-MQ, 2-methyl-4-quinolinol, reference compound]", "Condition not met"),
    ("CCCCCc1c(C)[nH]c2ccccc2c1=O", "Condition met"),
]

stdin: Here's an entry: CCCCCCCCc1c(C)[nH]c2ccccc2c1=O . Is its remaining activity at 250 µM below 2%?
stdout: Condition met

stdin: Find out if reported remaining activity at 250 µM for CCCCCCCCCCCc1c(CC)c(=O)c2ccccc2n1O is less than 2%
stdout: Condition met

stdin: Does the reported remaining activity at 250 µM of the following molecule sit strictly below 2%? CC(C)=CCC/C(C)=C/CC/C(C)=C/Cc1c(C)[nH]c2ccccc2c1=O
stdout: Condition met

stdin: Hello, is remaining activity at 250 µM of the following molecule strictly smaller than 2%? CCCCCCCCCCCc1[nH]c2ccccc2c(=O)c1CCC
stdout: Condition met

stdin: Regarding CCCCc1c(C)[nH]c2ccccc2c1=O , kindly confirm whether its remaining activity at 250 µM is beneath 2%.
stdout: Condition met

====

Target: cytochrome bd-II (Escherichia coli)
Construct: made in house; host or cells: E. coli C43 (DE3) Δ bo3 (CLY)
Test: Oxygen reductase activity assay (Clark-type electrode) with purified cytochrome bd-II
Type: biochemical, E. coli
Details: compound 250 µM, 200 µM ubiquinone-1, 5 mM dithiothreitol, 120 nM enzyme, RT, 100% = DMSO; mean ± S.E.M. (n=3); read-out: Rest activity in % of control activity bd-II
QUANTITY: remaining activity at 250 µM (%)
All answers are understood in %, so give the number only.

# COMPOUND, RESULT_UNIT, remaining activity at 250 µM
rows = [
    ("CCCCCCCCCCCc1c(CCCC)c(=O)c2ccccc2n1O [AC4-11]", "%", 2.14),
    ("CCCCCCCc1cc(O)c2ccccc2[n+]1[O-] [HQNO, 2-heptyl-4-quinolinol 1-oxide, reference compound]", "%", 6.44),
]

Okay, now this compound:
stdin: Value lookup for remaining activity at 250 µM; key = CCCCCCCc1c(CC)[nH]c2ccccc2c1=O [AD7-2]
stdout: 1.4

====

Biological target: cytochrome bo3 (Escherichia coli)
Construct: made in house; host or cells: E. coli strain GO195 with pIRHisA
Test: Oxygen reductase activity assay (Clark-type electrode) with purified cytochrome bo3
Assay type: biochemical, E. coli
Conditions: compound 250 µM, 200 µM ubiquinone-1, 5 mM dithiothreitol, 30 nM enzyme, RT, 100% = DMSO; mean ± S.E.M. (n=3); read-out: Rest activity in % of control activity bo3
QUANTITY: remaining activity at 250 µM (%)
Provide only the numeric value, understood in %.

stdin: Can you look up the measured remaining activity at 250 µM of O=c1c2c([nH]c3ccccc13)CCCCC2 for me?
stdout: 70.5

stdin: Find the recorded remaining activity at 250 µM belonging to CCCCCCCCCCCc1c(CCCC)c(=O)c2ccccc2n1O and report it.
stdout: 0.863

stdin: Look up remaining activity at 250 µM for this molecule: CCCCCCCc1c(CC)[nH]c2ccccc2c1=O
stdout: 33.3

====

Reported remaining activity at 250 µM values for the following compounds.
Target: cytochrome bo3 (Escherichia coli)
Construct: made in house; host or cells: E. coli strain GO195 with pIRHisA
Experiment: Oxygen reductase activity assay (Clark-type electrode) with purified cytochrome bo3
Assay type: biochemical, E. coli
Conditions: compound 250 µM, 200 µM ubiquinone-1, 5 mM dithiothreitol, 30 nM enzyme, RT, 100% = DMSO; mean ± S.E.M. (n=3); read-out: Rest activity in % of control activity bo3
Provide only the numeric value, understood in %.

# COMPOUND, RESULT_UNIT, remaining activity at 250 µM
measured = [
    ("CCCCCCCCCCCc1[nH]c2ccccc2c(=O)c1CCC [AD3-11]", "%", 47.1),
    ("CCCCCCCCCCCc1cc(=O)c2ccccc2[nH]1 [AD0-11]", "%", 23),
    ("COc1ccc2[nH]c3c(c(=O)c2c1)CCCC3 [Compound 7-MTHA, reference compound]", "%", 69.3),
    ("CC(C)=CCC/C(C)=C/CC/C(C)=C/Cc1c(C)[nH]c2ccccc2c1=O [AurD, Aurachin D]", "%", 30),
    ("CCCCCc1c(C)[nH]c2ccccc2c1=O [AD5-1]", "%", 70.4),
    ("CCCCCCCc1cc(O)c2ccccc2[n+]1[O-] [HQNO, 2-heptyl-4-quinolinol 1-oxide, reference compound]", "%", 4.53),
]

Kindly consider the entry below.
stdin: Please look up its remaining activity at 250 µM: CCCCCCc1c(C)[nH]c2ccccc2c1=O [AD6-1]
stdout: 73.2
